Test system: CDK4-cyclinD1
CONDITION_PARAMETERS: concentration: 1 μM,replicates: in singlicate; n = 1;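 note: KINOMEscan kinase panel screen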
Some compounds, each annotated with its measured %Inh.

GIVEN_SMILES | %Inh
COC(=O)Nc1nc2cc(Oc3ccc(NC(=O)Nc4cc(C(F)(F)F)ccc4Cl)cc3)ccc2[nH]1.Cl | 20%
O=C(Nc1n[nH]c2cc(-c3ccco3)ccc12)C1CC1 | 0%
FC(F)(F)c1cc(Br)cc(Nc2nccc(-c3cnn4ncccc34)n2)c1 | 16%
CN(c1cccc(CNc2nc(Nc3ccc4c(c3)CC(=O)N4)ncc2C(F)(F)F)c1)S(C)(=O)=O | 22%
CC(=O)c1c(-c2ccncc2)[nH]c(-c2ccncc2)c1C | 0%
O=C(NCC1CC1)c1ccc(-c2cc(C(=O)NC3CC3)ccc2F)cc1 | 0%
Cn1ccc2ncnc(Oc3ccc(NC(=O)Nc4cccc(C(F)(F)F)c4)c(Cl)c3)c21 | 8%
C[C@@H]1CNc2c(sc3ccc4nc(-c5ccncc5)ccc4c23)C(=O)N1 | 0%
O=c1[nH]cc(-c2ccc(O)cc2)c2sc(-c3ccncc3)cc12 | 0%

----------
Test system: TNK1
CONDITION_PARAMETERS: concentration: 1 μM,replicates: in singlicate; n = 1
ASSAY_ENDPOINT: %Inh (%)

COMPOUND | ASSAY_ENDPOINT | NUMERIC_VALUE
CS(=O)(=O)Nc1ccc(-c2ccnc3[nH]ccc23)cc1 [GSK993273] | %Inh | 0
c1ccc(Oc2ccc(Nc3ccnc4ccc(-c5ccccn5)cc34)cc2)cc1 [GW407034] | %Inh | 28
O=C(Nc1ccc(Oc2ccc3nc(NC(=O)C4CC4)cn3n2)c(F)c1)c1cccn(-c2ccccc2)c1=O | %Inh | 59
C[C@@H](Oc1cc(-n2cnc3ccc(-c4ccncc4)cc32)sc1C(N)=O)c1ccccc1Cl [GSK483724] | %Inh | 0
CS(=O)(=O)c1cccc(CNc2nc(Nc3ccc4c(c3)[C@@H]3C[C@@H]4CNC3=O)ncc2C(F)(F)F)c1 | %Inh | 97.2
Cn1ccc2ncnc(Oc3ccc(NC(=O)Nc4cccc(C(F)(F)F)c4)c(F)c3)c21 | %Inh | 17
COC(=O)Nc1nc2cc(Oc3ccc(NC(=O)Nc4cc(C(F)(F)F)ccc4Cl)cc3)ccc2[nH]1.Cl [GW697465] | %Inh | 28
O=C(Nc1cccc(C(F)(F)F)c1)c1cccc(Oc2ccc3nccn3n2)c1 | %Inh | 36

----------
System: ABL2
CONDITION_PARAMETERS: concentration: 1 μM,replicates: in singlicate; n = 1
// NB: equality with 8% counts as criterion not met; only %Inh strictly below is criterion met

COMPOUND | LABEL_VALUE
O=C(NOCC1CC1)c1cc(Br)c(F)c(F)c1Nc1ccc(I)cc1Cl | criterion met
CCNCC(Cc1ccccc1)NC(=O)c1cc(Br)c(-c2ccnc3[nH]ccc23)s1.Cl.Cl (centres unmarked) | criterion not met
NC(=O)c1ccc(-c2cc3ncnc(SCC(=O)O)c3s2)cc1 | criterion met
O=C(Nc1cccc(C(F)(F)F)c1)c1cccc(Oc2ccc3nccn3n2)c1 | criterion not met
COc1cccc(CNC(=O)NC2CCN(c3ccnc(Nc4cc(OC)c(OC)c(OC)c4)n3)C2)c1 (centres unmarked) | criterion not met
CCN1CCN(CCCC(=O)Nc2n[nH]c3nc(-c4ccc(O)cc4)c(Br)cc23)CC1 | criterion not met
CCOC(=O)N1CCC(n2cnc(-c3ccc(F)cc3)c2-c2ccnc(N)n2)CC1 | criterion met
Cl.c1ccc(Oc2ccc(Nc3ccnc4cc(-c5ccc(CN6CCNCC6)o5)ccc34)cc2)nc1 | criterion not met
O=C(Nc1cccc(Oc2ccc3nccn3n2)c1)Nc1cccc(C(F)(F)F)c1 | criterion not met
COC(=O)c1cccc(NC(=O)NC2CCN(c3ccnc(NCc4ccc(F)cc4)n3)CC2)c1 | criterion not met
Cc1ccc(C(=O)Nc2ccc(Oc3ccc4nc(NC(=O)C5CC5)cn4c3)c(F)c2)c(=O)n1-c1ccccc1 | criterion not met
O=C(Nc1n[nH]c2cc(-c3ccco3)ccc12)C1CC1 | criterion met
CN(c1cccc(CNc2nc(Nc3ccc4c(c3)CC(=O)N4)ncc2C(F)(F)F)c1)S(C)(=O)=O | criterion not met
Cn1ccc2ncnc(Oc3ccc(NC(=O)Nc4cccc(C(F)(F)F)c4)c(Cl)c3)c21 | criterion not met
Cc1ccc2c(-c3ccnc(Nc4ccc(C(F)(F)F)cc4)n3)cnn2n1 | criterion met

----------
Tested on: MLK2
CONDITION_PARAMETERS: concentration: 1 μM,replicates: in singlicate; n = 1
ASSAY_ENDPOINT: %Inh (%)

MOLECULE | NUMERIC_VALUE
COc1cc2ncn(-c3cc(OCC4CCCCC4)c(C(N)=O)s3)c2cc1OC [GSK204559] | 33
COc1cccc(C2=C(Nc3cccc(Cl)c3)C(=O)NC2=O)c1 [SB-341556] | 16
C[C@@H](Oc1cc(-n2cnc3cc(-c4ccncc4)ccc32)sc1C(N)=O)c1ccccc1Cl [GSK479719] | 0
O=c1[nH]cc(-c2ccc(O)cc2)c2sc(-c3ccncc3)cc12 [GSK1033723] | 0
N#Cc1cccc(C(=O)NC2CCN(c3ccnc(Nc4ccc(F)cc4)n3)C2)c1 (stereo not drawn) [GSK1379708] | 0
CS(=O)(=O)c1cccc(CNc2nc(Nc3ccc4c(c3)[C@@H]3C[C@@H]4CNC3=O)ncc2C(F)(F)F)c1 | 84
CNC(=O)c1ccccc1Nc1nc(Nc2cccc(CS(C)(=O)=O)c2)ncc1C.O=CO [GSK1520489] | 80
CC(=O)Nc1ccc(-c2cc3ncnc(SCC(=O)O)c3s2)cc1 | 18
CS(=O)c1ccc(-c2coc3ccc(-c4n[nH]c(=O)o4)cc23)cc1 (stereo not drawn) | 6
NC(=O)Nc1sc(-c2ccc(F)cc2)cc1C(N)=O [GW789449] | 25
COc1cc2nccc(Nc3ccc(Oc4ccccc4)cc3)c2cc1OC.Cl [GI261656] | 0
CN1CCN(CCNc2nc3cc(Oc4ccc(NC(=O)Nc5cc(C(F)(F)F)ccc5F)cc4)ccc3[nH]2)CC1.Cl.Cl [GW768504] | 40
Cc1ccc2c(-c3ccnc(Nc4ccc(C(F)(F)F)cc4)n3)cnn2n1 [GW819776] | 35
COc1cccc(OC)c1C(=O)Nc1cccc(-c2nn3ccccc3c2-c2ccnc(Nc3cccc(F)c3)n2)c1 [GSK361065] | 10
O=C(Nc1n[nH]c2cc(-c3ccco3)ccc12)C1CC1 [SB-737447] | 34
Nc1nccc(-c2ccc3c(N)n[nH]c3c2)n1 [GSK1034945] | 0
CCNCC(Cc1ccccc1)NC(=O)c1cc(Br)c(-c2ccnc3[nH]ccc23)s1.Cl.Cl (stereo not drawn) [GSK1383280] | 6
Cn1ccc2ncnc(Oc3ccc(NC(=O)Nc4cc(C(C)(C)C)on4)c(Cl)c3)c21 | 21

----------
Tested on: PKN2
CONDITION_PARAMETERS: concentration: 1 μM,replicates: in singlicate; n = 1
ASSAY_ENDPOINT: %Inh (%)

COMPOUND | ASSAY_ENDPOINT | VALUE_UNIT | NUMERIC_VALUE
CCn1c(-c2nonc2N)nc2cncc(Br)c21 [SB-738004] | %Inh | % | 4
CN(c1ccc2c(c1)nc(NCc1ccc(F)cc1)n2C)c1ccnc(Nc2ccc(CS(C)(=O)=O)cc2)n1.Cl [GW813244] | %Inh | % | 4
Cn1ccc2ncnc(Oc3ccc(NC(=O)Nc4cc(C(C)(C)C)on4)c(Cl)c3)c21 | %Inh | % | 0
CCNCC(Cc1ccccc1)NC(=O)c1cc(Br)c(-c2ccnc3[nH]ccc23)s1.Cl.Cl (stereo not drawn) [GSK1383280] | %Inh | % | 58
CC(=O)c1c(-c2ccncc2)[nH]c(-c2ccncc2)c1C [GW493036] | %Inh | % | 0
Nc1nccc(-c2ccc3c(N)n[nH]c3c2)n1 [GSK1034945] | %Inh | % | 9
Cc1ccc(C(=O)Nc2ccc(Oc3ccc4nc(NC(=O)C5CC5)cn4c3)c(F)c2)c(=O)n1-c1ccccc1 | %Inh | % | 0
C[C@@H]1CNc2c(sc3ccc4nc(-c5ccc(O)cc5)ccc4c23)C(=O)N1 | %Inh | % | 16
Cc1ccc(CC(=O)N2CCc3cc(-c4cn(C)c5ncnc(N)c45)ccc32)cc1 [GSK2634758] | %Inh | % | 16

----------
Tested on: ROCK1
CONDITION_PARAMETERS: concentration: 1 μM,replicates: in singlicate; n = 1
Recorded %Inh values for a group of molecules are listed next.

MOLECULE | MEASURED_TARGET | %Inh
C[C@@H]1CNc2c(sc3ccc4nc(-c5ccncc5)ccc4c23)C(=O)N1 | ROCK1 | 14%
c1ccc(Oc2ccc(Nc3ccnc4ccc(-c5ccccn5)cc34)cc2)cc1 | ROCK1 | 11%
COc1cccc(C2=C(Nc3cccc(Cl)c3)C(=O)NC2=O)c1 | ROCK1 | 0%
O=C(Nc1n[nH]c2cc(-c3ccco3)ccc12)C1CC1 | ROCK1 | 0%
Cc1nnc(-c2ccc3occ(-c4ccc(S(C)=O)cc4)c3n2)o1 (stereo not drawn) | ROCK1 | 0%
CC(C)c1nc(-c2cccc(NS(=O)(=O)c3ccccc3)c2)c(-c2ccnc(Nc3ccc4c(c3)CN(C)CC4)n2)s1 | ROCK1 | 0%
Cc1n[nH]c2cc(Nc3ccnc(Nc4cccc(CN5CCOCC5)c4)n3)ccc12 | ROCK1 | 27%
CCNCC(Cc1ccccc1)NC(=O)c1cc(Br)c(-c2ccnc3[nH]ccc23)s1.Cl.Cl (stereo not drawn) | ROCK1 | 99.8%
CS(=O)(=O)Nc1ccc(-c2ccnc3[nH]ccc23)cc1 | ROCK1 | 98.5%
Cl.Nc1n[nH]c2cc(-c3ccccn3)ccc12 | ROCK1 | 0%
Cn1ccc2ncnc(Oc3ccc(NC(=O)Nc4cnn(C(C)(C)C)c4)c(Cl)c3)c21 | ROCK1 | 6%
CC(C(=O)NC1CCN(c2ccnc(Nc3ccc(F)cc3)n2)C1)c1ccc(Cl)cc1 (stereo not drawn) | ROCK1 | 27%
Cn1cc(-c2cccc3c(N)c(C(N)=O)nnc23)cn1 | ROCK1 | 11%
Cc1ccc2c(-c3ccnc(Nc4ccc(C(F)(F)F)cc4)n3)cnn2n1 | ROCK1 | 54%
Cn1ccc2ncnc(Oc3ccc(NC(=O)Nc4cccc(C(F)(F)F)c4)c(Cl)c3)c21 | ROCK1 | 0%
Cl.Cl.NC[C@H](CC1CCCCC1)NC(=O)c1ccc(-c2ccnc3[nH]ccc23)s1 | ROCK1 | 100%
C[C@@H]1CNc2c(sc3ccc4nc(-c5ccc(O)cc5)ccc4c23)C(=O)N1 | ROCK1 | 65%
CC(=O)Nc1nc2cnc(Nc3cc(NC(=O)c4cccc(CC(C)(C)C#N)c4)ccc3C)nc2s1 | ROCK1 | 19%
